Biological target: Torsin-1A-interacting protein 2 (Homo sapiens)
Test: LULL1 binders on small-molecule microarray, primary screen, cell lysate, human LULL1 lysate, 635/667 nm fluorescence (AID 1092);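 note: probe is lysate of COS7 cells overexpressing human LULL1; score merges per-feature 667 nm fluorescence with signal-to-noise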
Details: hLULL1 lysate binding, 635 nm fluorescence, higher = more signal
Decision: composite z-score >= 0.5 yields fulfilled, all other cases yield not fulfilled.

- Record Smiles: "COc1cccc(-c2cccc(=O)o2)c1"
  Discrete Label: "not fulfilled"
- Record Smiles: "CCCC[C@@H]1C[C@H]1[C@@H](NC(=O)c1ccco1)c1ccc(-c2ccccc2)cc1"
  Discrete Label: "not fulfilled"
- Record Smiles: "NCCCCCNC(=O)[C@@H]1C[C@@H]2C(=O)N[C@@H](Cc3ccccc3)C(=O)N2[C@@H]1c1ccc(O)cc1"
  Discrete Label: "fulfilled"

Threshold query (composite z-score >= 0.5) on COCCOC(=O)N1C(=O)[C@@]2(c3ccccc31)[C@H](c1ccccc1OCCO)N1[C@H](c3ccccc3)[C@H](c3ccccc3)OC(=O)[C@H]1[C@@H]2C(=O)N1CCN(c2ncccn2)CC1
fulfilled

Assess whether reported composite z-score for CCOC(=O)C[C@H]1[C@H](OC(=O)c2ccccc2-c2ccccc2)[C@@H](NC(=O)CC(C)C)c2cc(OCCCO)ccc2N1C(=O)Cc1ccc(OC)cc1 sits at 0.5 or higher.
not fulfilled

Quick check: does C=C(/C(=C/C[C@H](OC(C)=O)c1ccc(CO)o1)c1cc(C(=O)OC)ccc1OC)C(C)C have composite z-score greater than or equal to 0.5?
not fulfilled

For this molecule, is measured composite z-score 0.5 or higher? C=C(CCCC)C(=O)CC[C@@H](OC(=O)c1ccccc1-c1ccccc1C(=O)O)c1ccc(OCCO)cc1
not fulfilled

Quick check: does O=C(NC1CC1)[C@@H]1c2ccccc2C(=O)N(Cc2ccccc2Cl)[C@H]1c1ccc(CO)cc1 have composite z-score greater than or equal to 0.5?
fulfilled

Source listed as PubChem BioAssay.
